The reported numbers originate from patent US5955500A.

Tested on: canine heart
Experimental setup: 0.2 mg/kg i.v., 0 min, mean ± SE
Measured quantity: AH time (ms)
Only the number, expressed in ms, is required.

Task: State its AH time on canine heart: COc1ccc(CCN(C)CCC[C@](C#N)(c2ccc(OC)c(OC)c2)C(C)C)cc1OC [R-verapamil, reference compound]
Result: 93

Task: Same lookup for COc1ccc(CCN(C)CCCC(C#N)(c2ccc(OC)c(OC)c2)C(C)C)cc1OC (racemic) [80/20S] , please.
Result: 99

Task: Same lookup for COc1ccc(CCN(C)CCCC(C#N)(c2ccc(OC)c(OC)c2)C(C)C)cc1OC (racemic) [90/10S] , please.
Result: 91

Task: Same lookup for COc1ccc(CCN(C)CCCC(C#N)(c2ccc(OC)c(OC)c2)C(C)C)cc1OC (racemic) [20/80S] , please.
Result: 110
